The compounds listed here are annotated with their LD50 at 168 h.
experiment: Toxicity test, albino rat/peroral; conditions: in vivo, po; albino rat; peroral; evaluation after 7 days

Reference set (4 entries):
CCCSP(=S)(OCC)Oc1nn(CN2CCCCC2)c(=O)c2ccccc12 (centres unmarked)
250 to 500 mg/kg
CCCSP(=S)(OCC)Oc1nn(CN2CCCC2)c(=O)c2ccccc12 (centres unmarked)
100 to 250 mg/kg
CCOP(=S)(OCC)Oc1ccc(=O)[nH]n1
2.5 to 5 mg/kg
CCCSP(=S)(OCC)Oc1ccc(=O)n(-c2ccccc2)n1 (centres unmarked)
250 to 500 mg/kg

Attention now shifts to the item below.
// LD50 at 168 h lookup, key: CCOP(=S)(OCC)Oc1n[nH]c(=O)c2ccccc12
~25 mg/kg

* * *

assay: Toxicity test, albino rat/peroral; conditions: in vivo, po; albino rat; peroral; evaluation after 7 days
measured-endpoint: LD50 at 168 h

CCCSP(=S)(OCC)Oc1ccc(=O)[nH]n1 (stereo not drawn)
100 to 250 mg/kg
CCCSP(=S)(OCC)Oc1ccc(=O)n(-c2ccc(C)cc2)n1 (stereo not drawn)
~500 mg/kg
CCOP(=S)(OCC)Oc1ccc(=O)n(CCC(C)=O)n1
10 to 25 mg/kg
CCCSP(=S)(OCC)Oc1ccc(=O)n(-c2ccc(Cl)cc2)n1 (stereo not drawn)
> 1000 mg/kg

Request the reported LD50 at 168 h associated with CCCSP(=S)(OCC)Oc1ccc(=O)n(CCC(C)=O)n1 (stereo not drawn)
250 to 500 mg/kg

Please answer likewise for CCCSP(=S)(OCC)Oc1ccc(=O)n(CCC#N)n1 (stereo not drawn)
250 to 500 mg/kg

// next record CCOP(=S)(OCC)Oc1ccc(=O)n(-c2ccc(C)cc2)n1 [Compound F, reference compound]
50 to 100 mg/kg

Again, but for CCCSP(=S)(OCC)Oc1ccc(=O)n(-c2cccc([N+](=O)[O-])c2)n1 (stereo not drawn)
> 1000 mg/kg

Same question, C#CCn1nc(OP(=S)(OCC)SCCC)ccc1=O (stereo not drawn) this time
~250 mg/kg

* * *

Assay: Toxicity test, albino rat/peroral
Settings: in vivo, po; albino rat; peroral; evaluation after 7 days
Description: Test animal: Albino rat (Rattus norvegicus) To produce a suitable preparation of active compound, 3 parts by weight of active compound were mixed with 2.8 parts by weight of highly disperse silica and 4.2 parts by weight of talc. […] The dosage was measured out volumetrically after weighing the test animals. […] The results were in each case evaluated at the end of the above-mentioned interval of time, calculated from the administration of the active compound. […]
Readings of LD50 at 168 h for the listed compounds

Some entries whose results are on file:
CCCSP(=S)(OCC)Oc1ccc(=O)n(C)n1 (stereo not shown)
100 to 250 mg/kg
CCCSP(=S)(OCC)Oc1ccc(=O)n(C2CCS(=O)(=O)C2)n1 (stereo not shown)
~500 mg/kg
CCCSP(=S)(OCC)Oc1ccc(=O)n(CCC(=O)OC)n1 (stereo not shown)
~250 mg/kg
CCCSP(=S)(OCC)Oc1ccc(=O)n(-c2cccc(Cl)c2)n1 (stereo not shown)
> 1000 mg/kg
CCCSP(=S)(OCC)Oc1n[nH]c(=O)c2ccccc12 (stereo not shown)
~500 mg/kg
C=CCn1nc(OP(=S)(OCC)SCCC)ccc1=O (stereo not shown)
~500 mg/kg

Find the recorded LD50 at 168 h belonging to CCOP(=S)(OCC)Oc1ccc(=O)n(CCC#N)n1 and report it.
10 to 25 mg/kg

And what about the compound CCCSP(=S)(OCC)Oc1ccc(=O)n(CC(=O)OCC)n1 (stereo not shown) ?
~500 mg/kg

Repeat for the following compound: CCCSP(=S)(OCC)Oc1ccc(=O)n(CCSCC)n1 (stereo not shown)
250 to 500 mg/kg

Also CCOP(=S)(OCC)Oc1ccc(=O)n(C)n1 , if possible.
5 to 10 mg/kg

Data provenance is patent US4013657A.
